test system: horse erythrocytes; experiment: Hemolysis assay; assay type: cell-based; conditions: peptides in PBS, 512 to 1 µM, 1% Triton-X100 = 100%
No end group written: not given here.
The following substances are shown together with reported HC50 of hemolysis on erythrocytes values.
API: value field is a number in µM; no unit string.

// worked examples, HC50 of hemolysis on erythrocytes included
In [3]: df
Out[3]:
                                  substance  quantitativereadout
0          FLSLIPKIISAISALIKHF-NH2 [PSPHa5]                1.074
1  FLSLIPAAISAVSALANHF-NH2 [PSPHa, Phylloseptin-PHa]                52.17
2          FLSLIPKIISAISALINHF-NH2 [PSPHa4]                2.766
3          FLSLIPKAISAISALANHF-NH2 [PSPHa2]                34.86
4          FLSLIPKAISAISALINHF-NH2 [PSPHa3]                9.266

Let us examine a further case.
*Q* For FLSLIPKAISAVSALANHF-NH2 [PSPHa1] , what is its reported HC50 of hemolysis on erythrocytes?
*A* 197.7
